Every entry's value here was drawn from patent US20250333515A1.

- Assayed System: biotinylated recombinant human CLL-1 extracellular domain protein, isoform with glutamine at amino acid position 244 (human) (UniProt Q5QGZ9)
- Sequence (Q5QGZ9 65-265): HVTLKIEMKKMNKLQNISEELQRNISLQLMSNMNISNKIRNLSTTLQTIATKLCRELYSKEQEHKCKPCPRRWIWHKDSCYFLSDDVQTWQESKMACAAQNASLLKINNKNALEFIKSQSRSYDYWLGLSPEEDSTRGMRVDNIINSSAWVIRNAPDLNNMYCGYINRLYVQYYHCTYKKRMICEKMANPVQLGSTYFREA
- Procedure Details: Exp 2 (= Blitz, CLL-1-Q244 of FIG. 12B)
Kindly state pKd for each of the entries shown.
On this scale, pKd is minus log10 of a concentration expressed in M (mol/L).

Data request: Given Anti-CLL-1 Binder Clone 10 (scFv, not shown: small tags and cut ends) scFv: DIQMTQSPSFLSASVGDRVTITCRASQGISSYLAWYQQKPGKAPKLLIYSASSLQSGVPSRFSGSGSGTDFTLTISSLQPEDFATYYCQQSYNSPTFGQGTRLEIKGGGGSGGGGSGGGGSQVQLVQSGAEVKKPGASVKVSCKASGYTFTGYYMHWVRQAPGQGLEWMGWMNPNSGNTGYAQKFQGRVTMTRNTSISTAYLELTSLTSDDTAVYYCARGDTGDFFDHWGQGTLVTVSS , state its recorded pKd.
Data returned: 7.68

Data request: Also, Anti-CLL-1 Binder Clone 12 (scFv, not shown: small tags and cut ends) scFv: DIQMTQSPSSLSASVGDRVTITCQASQDISNYLNWYQQKPGKAPKLLIYDASNLETGVPSRFSGSGSGTDFTLTISSPQPEDLATYYCQQANSFPFTFGQGTKVEIKGGGGSGGGGSGGGGSQVQLVQSGAEVKKPGSSVKVSCKASGYSFTRNDITWVRQANGRGLEWLGRLNPNNGDTVYAEVFQGRVAMTRDTSTDTAYMELASLKSDDTAVYFCARGFWSFDVWGQGTMVTVSS please.
Data returned: 7.35

Data request: Quick one: Anti-CLL-1 Binder Clone 41 (scFv, not shown: small tags and cut ends) scFv: QSVLTQPASVSGSLGQSITISCTGTSRDVGGYNFVSWYQQHPGKAPKLIIFDVTTRPSGLSDRFSASKSGNTASLTISGLQAEDEADYFCGSYTASDTMLFGGGTKLTVLGGGGSGGGGSGGGGSQVQLLESGGGVVQPGRSLRLSCAASGFTFDDYAMHWVRQAPGKGLEWVSGISWNSGSIGYADSVKGRFTVSRDNSKNTLYQQMNGLRAEDTAVYYCAREGRPTAFDYWGQGTTVTVSS
Data returned: 6.51

Data request: Here is the next binder: Anti-CLL-1 Binder Clone 40 (scFv, not shown: small tags and cut ends) scFv: QSVLTQPPSVSAAPGQKVTISCSGSSSNIGNNYVSWYQQLPGTAPKLLIYDNNKRPSGIPDRFSGSESGTSATLGITGLQTGDEADYYCGTWDSSLSAWVFGGGTQLIILGGGGSGGGGSGGGGSQVQLQQSGPGLVKPSQTLSLTCAISGDSVSSNSAAWNWIRQSPSRGLEWLGRTHYRSKWYNDYAVSVKSRITISADTSKNQFSLQLNSVTPEDTAVYYCARDRYTVRPDAFDIWGQGTTVTVSS
Data returned: 7.85

Data request: What do you get for Anti-CLL-1 Binder Clone 38 (scFv, not shown: small tags and cut ends) scFv: DIQMTQSPSTLSASVGDRVTITCRASQSISSWLAWYQQKPGKAPKLLIYTASSLQSGVPSRFSGSESGTDFTLTISSLQPEDFATYYCQQSYSTPLTFGGGTKVDIKGGGGSGGGGSGGGGSQVQLVQSGAEVKKPGASVKVSCKASGYTFTGYYMHWVRQAPGQGLEWMGWINPNSGGTNYAQKFQGRVTLTRDTSITTAYLELTSLTSDDTAVYYCARGDTGDFFDHWGQGTLVTVSS ?
Data returned: 7.85

Data request: Request: Anti-CLL-1 Binder Clone 20 (VHH, not shown: small tags and cut ends) VHH: QVQLVQSGGGLVQPGGSLRLSCAASDFSFSYYEMSWVRQAPGKGLEWVSTISGSGDSTYYADSVKGRFTISRDNTKNTLYLQMNTLRAEDTATYYCMTDGETWGTHRYTVYWGQGALVTVSS
Data returned: 7.48

Data request: Here is the next binder: Anti-CLL-1 Binder Clone 2 (scFv, not shown: small tags and cut ends) scFv: QSVLTQPLSVSVALGQTARITCGGNNIGSKNVHWYQQKAGQAPVLVIQRDSNRPSGIPERFSGSNSGNTATLTISRAQAGDEADYFCQVWDSNTYVFGTGTKLTVLGGGGSGGGGSGGGGSEVQLVESGGGLVKPGGSLRLSCAASGFTFSDYYMSWIRQAPGKGLEWVSYISSSGSTIYYADSVKGRFTISRDNAKNSLYLQMNSLRDEDTAVYYCARQSAEIVGAFDHWGQGTMVTVSS
Data returned: 7.15

Data request: Now try Anti-CLL-1 Binder Clone 6 (scFv, not shown: small tags and cut ends) scFv: QSVLTQPPSVSAAPGQKVSIFCSGGSSNIGKNYVSWYQQLPGTAPKLLIYENQHRPSGIPDRFSGSKSGTSATLGITGLQTGDEADYYCATWDDSLSAGVFGGGTELTVLGGGGSGGGGSGGGGSQLVQSGAEVRKPGESLKISCKGSGYSFTSYWIGWVRQMPGKGLEWMGFIYPGDSDTRYSPSFQGQVTISADKSISTAYLQRSSLKASDTAMYYCARLGGYSGYDSEVFYLDYWGQGTTVTVSS .
Data returned: 7.96

Data request: Here is the next binder: Anti-CLL-1 Binder Clone 4 (scFv, not shown: small tags and cut ends) scFv: QSVVTQPPSVSAAPGQKVTISCSGSSPNIGKNYVSWYQQLPGTAPKLLIYDNNKRPSGIPDRFSGSKSGTSATLGITGLQTGDEADYYCGTWDSSLSGYVFGTGTKVTVLGGGGSGGGGSGGGGSQVQLVESGGGVVQPGRSLRLSCAASGFTFSSYGMHWVRQAPGKGLEWVAFISHDGSNKYYADSVKGRSTISRDNSKSTLFLQMNSLRDEDTAVYFCAREGQLTTSWDFFDYWGHGTLVTVSS
Data returned: 7.89

Data request: Then what about the binder Anti-CLL-1 Binder Clone 11 (scFv, not shown: small tags and cut ends) scFv: QSVLTQPASVSGSPGQSITISCTGTSSDVGASNSVSWYQRHPGKPPKLMIYDVSNRPSGISNRFSGSKSGNTASLTISGLQSEDEADYYCSSYTGSSTFVVFGGGTQLIILGGGGSGGGGSGGGGSEVQLVESGGGVVQPGGSLRLSCAASGFTFSSYWMSWVRQAPGKGLEWVANIRQDGSEKYYVDSVKGRFTISRDNAKNSLYLQMNSLRAEDAAVYYCAREQDTAMVAFDYWGQGTLVTVSS ?
Data returned: 7.39
